# reported cytotoxicity at 70.5 h; entries follow
# assay-text: Human HepG2 cell viability assay in 384 well format
# Format: toxicity, cell-based
# Parameters: dose 125 nL, time 70.5 hour; concentration not given beside the values
# experimental-conditions: HepG2 cells, read-out: Inhibition
Give the quantity in %, number only.

Report cytotoxicity at 70.5 h for Cc1nc(CN2CCCC(NCCc3ccccc3Cl)C2)no1 (stereo not drawn)
-6.15

Others:
Hello, please tell me recorded cytotoxicity at 70.5 h for this one: CCN(C(=O)NCc1ccc(C)cc1OC)C(C)c1cccnc1 (stereo not drawn)
-6.56

Assign cytotoxicity at 70.5 h to the following record: Cc1nn(-c2ccccc2Cl)c(C)c1CCC(=O)NCCS(C)(=O)=O
1.1

----------
The compounds listed here are annotated with their cytotoxicity at 70.5 h.
# assay-text: Human HepG2 cell viability assay in 384 well format
# Type: toxicity, cell-based
# Parameters: dose 125 nL, time 70.5 hour; concentration not given beside the values
# experimental-conditions: HepG2 cells, read-out: Inhibition
Unit % implied. Number only.

Consider the compound CC(=O)N1CCC(c2ccnc(Nc3cnccn3)n2)C1 (configuration not stated) . State its measured cytotoxicity at 70.5 h.
-22.3

---
Specify measured cytotoxicity at 70.5 h for Cc1nc2c(c(N(C)C)n1)CCN(C(=O)c1sccc1S(N)(=O)=O)C2 .
-7

Read the entry CN1C(=O)CC(c2cnn(C)c2)C12CCN(C(=O)c1ccc[nH]1)CC2 (configuration not stated) and write its reported cytotoxicity at 70.5 h.
-5.07

Tell me its cytotoxicity at 70.5 h given C[C@@H]1CN(C(=O)CCN2CCCC2)CC[C@@]1(O)C1CCC1 as the entry.
1.37

State its cytotoxicity at 70.5 h: CC(=O)N1CCC(NC(=O)Cc2nc3nc(C)cc(C)n3n2)CC1
-3.83

Look up and state reported cytotoxicity at 70.5 h for Cn1ccnc1CN1CCC2(CC1)COCCN(S(C)(=O)=O)C2
-7.67

For Cc1cc(C(=O)N2CCN(c3nc4ccccc4s3)CC2)no1 , write its cytotoxicity at 70.5 h.
48.3

----------
# assay-text: Human HepG2 cell viability assay in 384 well format
# Type: toxicity, cell-based
# Design: dose 125 nL, time 70.5 hour; concentration not given beside the values
# experimental-conditions: HepG2 cells, read-out: Inhibition
recorded-metric: cytotoxicity at 70.5 h (%)
Field format: number, assumed %, no unit text.

Example cases with answers are listed next.
Input CC(C)(C)NC(=O)NC(=O)CN1C=Nc2ccccc2S1(=O)=O , output reported cytotoxicity at 70.5 h.
-8.6

Respond only with cytotoxicity at 70.5 h recorded for CC(Cn1cccn1)NC(=O)N(C)Cc1ccc(Cl)s1 (configuration not stated)
-16.6

Next:
Return cytotoxicity at 70.5 h (reported value) for this compound: Cc1ccc(CNC(=O)Nc2nnc(C3CC3)s2)n1C
-0.672

Provide one value: measured cytotoxicity at 70.5 h of Cc1nn(C)cc1-c1cc(C(=O)N2CCc3ncc(Cl)cc3C2)on1
-2.35

Report cytotoxicity at 70.5 h for C[C@@H]1C[C@H]2CN(C(=O)c3ccncn3)C[C@H]2O1
-14.1

Find the measured cytotoxicity at 70.5 h of COc1coc(C(=O)Nc2ccncc2)cc1=O and report it.
-12.7

Give recorded cytotoxicity at 70.5 h. c1coc(CNc2ncc3c(n2)C2(CCNC2)COC3)c1 (configuration not stated)
-4.32

Specify measured cytotoxicity at 70.5 h for O=C(NCc1cncc2c1CCN(C1CCOC1)C2)c1ccco1 (configuration not stated) .
-2.1

Name the recorded cytotoxicity at 70.5 h of the compound listed here: OC1(Cn2ccc3ncccc32)CCN(Cc2cccs2)CC1
-0.455

Return the recorded cytotoxicity at 70.5 h value; entry: CC(C)OCc1noc(C2CC=CC2)n1
-6.7

Quote cytotoxicity at 70.5 h reported for O=C(Nc1cccnc1)[C@H]1C[C@@H]2CN(S(=O)(=O)C3CC3)C[C@H]1O2 please.
-4.16

Retrieve cytotoxicity at 70.5 h measured for COc1ccc(-c2ccccc2CN)c(OC)c1 and print it.
21.8

Specify reported cytotoxicity at 70.5 h for the compound shown: Cc1nn(C)cc1C1SCC(=O)Nc2c1c(O)nn2C(C)C (configuration not stated)
-31.1

Please look at this compound and report its cytotoxicity at 70.5 h: CCC1=N[C@@]2(CC[C@@H]3CN(CC)C[C@@H]32)C(=O)N1C
7.11

Supply cytotoxicity at 70.5 h value. Item: NC(=O)C1CCN(c2ccc3cc(Br)ccc3n2)C1 (configuration not stated)
-89.2

Return value of cytotoxicity at 70.5 h for input Cn1cc(-c2cnc(N3CCOCC3)nc2)cc1C(=O)NC1CC1 , no commentary.
23.6

Supply measured cytotoxicity at 70.5 h of Cc1ncnc2c1CCN(Cc1ccccn1)CC2 in your reply.
-4.71

Read the entry CC(=O)OCc1ccc(CN2CCCCCC2c2cc(C)no2)o1 (configuration not stated) and write its reported cytotoxicity at 70.5 h.
24.7

// fetch cytotoxicity at 70.5 h given entry CCN1CCCCC1C(=O)N1CCN(C(=O)OC)CC1 (configuration not stated)
-5.22

Please give the documented cytotoxicity at 70.5 h of Cc1nc(CN(C)C(=O)C2CC(=O)N(c3cccc(O)c3)C2)cs1 (configuration not stated)
-2.8

----------
# assay-text: Human HepG2 cell viability assay in 384 well format
# Format: toxicity, cell-based
# Design: dose 125 nL, time 70.5 hour; concentration not given beside the values
# experimental-conditions: HepG2 cells, read-out: Inhibition
Recorded cytotoxicity at 70.5 h values for a group of molecules are listed next.
Please reply with the bare figure in % and do not write the unit itself.

Supply recorded cytotoxicity at 70.5 h for COc1ccc(CNC(Cc2ccsc2)c2ccc(C)cn2)c(OC)c1 (stereo not given) here.
85.3

Complete the entry with cytotoxicity at 70.5 h for CN(Cc1cc2n(n1)CCNC2)Cc1noc(C2CCC2)n1
-3.21

Check the records and state cytotoxicity at 70.5 h for COc1ccc(CC(=O)N2CCCC2Cn2cc(C)cn2)cc1OC (stereo not given)
-0.349

Answer with the recorded cytotoxicity at 70.5 h for the molecule listed here: CC(C)CN1C(=O)CO[C@@H]2CN(C(=O)N(C)C)C[C@H]21
2.11

New cases:
Look up and state reported cytotoxicity at 70.5 h for Cc1cnc(CN2CCN(c3ccnc(-c4ccccc4)n3)CC2)cn1
-10.6

----------
Listed below: cytotoxicity at 70.5 h values for each entry.
# assay-text: Human HepG2 cell viability assay in 384 well format
# Assay type: toxicity, cell-based
# Parameters: dose 125 nL, time 70.5 hour; concentration not given beside the values
# experimental-conditions: HepG2 cells, read-out: Inhibition
Unit % implied. Number only.

Give the reported value of cytotoxicity at 70.5 h for this record: Cc1nnc(CN(C)CC2CCCN2c2cccnn2)o1 (stereo not drawn)
-3.53

Identify measured cytotoxicity at 70.5 h corresponding to CC(C)n1[nH]c(=O)c2c1NC(=O)CSC2c1cccc(OCC(N)=O)c1 (stereo not drawn)
-11.3

Check the records and state cytotoxicity at 70.5 h for CS(=O)(=O)NCC1CCCN(C(=O)COCC(F)(F)F)C1 (stereo not drawn)
-21

Give cytotoxicity at 70.5 h for the following compound: CCO[C@H]1CO[C@@]2(CCCN(Cc3nc(C)cs3)C2)C1
-10.1

Please indicate cytotoxicity at 70.5 h recorded for Nc1nc(C2CCN(C(=O)c3cnco3)CC2)cs1
-5.18

Give the reported cytotoxicity at 70.5 h for this compound. O=C1NCC2(CCCN(Cc3ccccc3OCCO)C2)O1 (stereo not drawn)
-8.84

Return cytotoxicity at 70.5 h (reported value) for this compound: O=C(Nc1nncs1)NC1CCCc2c1cnn2CCO (stereo not drawn)
4.56

State its cytotoxicity at 70.5 h for this compound: CCc1ccc2nc(C)cc(C(=O)N[C@@H]3CCCNC3)c2c1
2.34

Read off the recorded cytotoxicity at 70.5 h for CCn1ccnc1CNc1nccc(-c2cn(C)nc2C)n1
-2.79

Fill in cytotoxicity at 70.5 h for record CC(=O)Nc1ccc(CNC2COc3c2ccc(C)c3C)cc1 (stereo not drawn)
15.7

Give recorded cytotoxicity at 70.5 h. CCOc1cc(CNCc2ncc[nH]2)c(Cl)cc1OC(C)C
20.6

Report cytotoxicity at 70.5 h for CCOC(=O)CC1CCCCN1C(=O)c1cc(C)on1 (stereo not drawn)
-8.65

Determine its reported cytotoxicity at 70.5 h: Cc1ccc(-c2c(-c3ccccc3)ncn2CCCN2CCOCC2)o1
-11.8

Provide only the value of recorded cytotoxicity at 70.5 h for Cc1nn(C)c(C)c1S(=O)(=O)NCC1CCN(c2ccccn2)CC1
0.358

Assign cytotoxicity at 70.5 h to the following record: CC1CCCCN1CCNC(=O)c1scnc1Cl (stereo not drawn)
-12.6

Please give the documented cytotoxicity at 70.5 h of CN1Cc2ccccc2CC2(CCN(Cc3nccn3C)CC2)C1=O
-3.31

Report measured cytotoxicity at 70.5 h; entry is CCc1cc(NC2CCOCC2)n2nc(C)c(C)c2n1
-10.6

Tell me cytotoxicity at 70.5 h reported for CNC(=O)[C@H]1C[C@@H]2CN(S(=O)(=O)c3cccc(F)c3)C[C@@H]2N1C
1.47

Quickly give me recorded cytotoxicity at 70.5 h for Cc1nnc(CN2CCCC2c2ccc3c(c2)OCCO3)n1C (stereo not drawn)
-3.49

Indicate the recorded cytotoxicity at 70.5 h value for this compound: COCCN1CCC(Cc2cncc(-c3ccc(C(=O)O)cc3)n2)CC1
8.54

// fetch cytotoxicity at 70.5 h given entry CCN(Cc1ccc2c(c1)OCCO2)C(=O)Cn1cccnc1=O
-5.36

Complete the entry with cytotoxicity at 70.5 h for Cc1n[nH]c(NC(=O)c2ccc(COCC(F)(F)F)cc2)c1C
-10.3

Hello, please tell me recorded cytotoxicity at 70.5 h for this one: Cn1nc(C2CCN(C(=O)CN3CCCCC3)CC2)c2cccnc21
-4.57

Return the recorded cytotoxicity at 70.5 h value; entry: COc1ccnc(N2CCN(CC(=O)N3CCOC(C)C3)CC2)n1 (stereo not drawn)
-8.38

Assign cytotoxicity at 70.5 h to the following record: c1ccc2oc(N3CCn4c(nnc4C4CC4)C3)nc2c1
-2.1

Report cytotoxicity at 70.5 h for Nc1cc2c(nn1)CCN(C(=O)CC1CCCC1)C2
3.78

Using the record for CCS(=O)(=O)NC(CCSC)C(=O)Nc1cc(F)ccc1C (stereo not drawn) , state its measured cytotoxicity at 70.5 h.
-36.1

Return reported cytotoxicity at 70.5 h. Input compound: Cc1ccc(-c2noc(CN3CC(n4cc(C)cn4)C3)n2)cc1
-0.527
